test-system: AKT2 (Homo sapiens, UniProt P31751)
Sequence (P31751 whole entry): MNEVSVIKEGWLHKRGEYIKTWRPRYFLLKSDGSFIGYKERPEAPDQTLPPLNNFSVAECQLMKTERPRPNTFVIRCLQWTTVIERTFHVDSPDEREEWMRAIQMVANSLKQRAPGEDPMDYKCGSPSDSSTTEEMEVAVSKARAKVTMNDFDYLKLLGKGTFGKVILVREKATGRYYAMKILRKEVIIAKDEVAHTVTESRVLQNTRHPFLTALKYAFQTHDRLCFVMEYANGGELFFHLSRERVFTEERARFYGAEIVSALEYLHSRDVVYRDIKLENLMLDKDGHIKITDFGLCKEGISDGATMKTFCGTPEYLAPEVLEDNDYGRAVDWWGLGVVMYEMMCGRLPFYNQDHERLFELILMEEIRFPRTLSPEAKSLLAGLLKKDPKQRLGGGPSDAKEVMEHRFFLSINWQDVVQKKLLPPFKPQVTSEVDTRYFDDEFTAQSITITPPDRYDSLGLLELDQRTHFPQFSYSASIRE
assay-name: AKT Kinase Assay (IMAP fluorescent polarisation) vs AKT2
conditions-used: activated AKT2, FAM Crosstide substrate
Structures can show the parent of a compound that is named as a salt.

# compound, IC50
data = [
    ("COc1ccc2c(=O)c(-c3ccc(C4(N)CCC4)cc3)c(-c3ccccc3)oc2c1C(N)=O [Example 50, hydrochloride]", "1000 to 10000 nM"),
    ("NC(=O)c1ccc2c(=O)c(-c3ccc(C4(N)CCC4)cc3)c(-c3ccccc3)oc2c1", "1000 to 10000 nM"),
    ("NC1(c2ccc(-c3c(-c4ccccc4)oc4c(ccc5[nH]c(=O)oc54)c3=O)cc2)CCC1", "≤ 1000 nM"),
    ("NC1(c2ccc(-c3c(-c4ccccc4)oc4c(ccc5c(I)n[nH]c54)c3=O)cc2)CCC1 [Example 97, hydrochloride]", "1000 to 10000 nM"),
    ("N#Cc1nccc2c(=O)c(-c3ccc(C4(N)CCC4)cc3)c(-c3ccccc3)oc12", "1000 to 10000 nM"),
    ("COc1ccc2c(=O)c(-c3ccc(C4(N)CCC4)cc3)c(-c3ccccc3)oc2c1Br", "≤ 1000 nM"),
    ("NC1(c2ccc(-c3c(-c4ccccc4)oc4cccc(F)c4c3=O)cc2)CCC1", "1000 to 10000 nM"),
    ("NC1(c2ccc(-c3c(-c4ccccc4)oc4nc(Cl)ccc4c3=O)cc2)CCC1", "1000 to 10000 nM"),
    ("Cc1nccc2c(=O)c(-c3ccc(C4(N)CCC4)cc3)c(-c3ccccc3)oc12", "1000 to 10000 nM"),
    ("NC1(c2ccc(-c3c(-c4ccccc4)oc4c(Br)cccc4c3=O)cc2)CCC1", "≤ 1000 nM"),
    ("NC1(c2ccc(-c3c(-c4ccccc4)oc4c(-n5ccccc5=O)nccc4c3=O)cc2)CCC1 [Example 104, hydrochloride]", "> 10000 nM"),
    ("Cn1cc2c(ccc3c(=O)c(-c4ccc(C5(N)CCC5)cc4)c(-c4ccccc4)oc32)n1", "≤ 1000 nM"),
    ("NC1(c2ccc(-c3c(-c4ccccc4)oc4c(-c5cccnc5)nccc4c3=O)cc2)CCC1 [Example 123, hydrochloride]", "≤ 1000 nM"),
    ("NC1(c2ccc(-c3c(-c4ccccc4)oc4c(=O)n(CCO)ccc4c3=O)cc2)CCC1 [Example 43, hydrochloride]", "> 10000 nM"),
    ("NC1(c2ccc(-c3c(-c4ccccc4)oc4c(ccn5c(=O)[nH]nc45)c3=O)cc2)CCC1 [Example 63, hydrochloride]", "≤ 1000 nM"),
    ("COc1ccc2c(=O)c(-c3ccc(C4(N)CCC4)cc3)c(-c3ccccc3)oc2c1OC", "≤ 1000 nM"),
    ("NC1(c2ccc(-c3c(-c4ccccc4)oc4c(-n5cnnc5)nccc4c3=O)cc2)CCC1 [Example 102, hydrochloride]", "1000 to 10000 nM"),
    ("COc1cc2c(=O)c(-c3ccc(C4(N)CCC4)cc3)c(-c3ccccc3)oc2cc1Br", "1000 to 10000 nM"),
    ("CN1CCN(c2ccc3oc(-c4ccccc4)c(-c4ccc(C5(N)CCC5)cc4)c(=O)c3c2)CC1", "≤ 1000 nM"),
    ("NC1(c2ccc(-c3c(-c4ccccc4)oc4c(ccc5cn(CCO)nc54)c3=O)cc2)CCC1 [Example 86, hydrochloride]", "≤ 1000 nM"),
    ("NC1(c2ccc(-c3c(-c4ccccc4)oc4c(-c5cccc(F)c5C(=O)O)nccc4c3=O)cc2)CCC1", "> 10000 nM"),
    ("COc1cc2oc(-c3ccccc3)c(-c3ccc(C4(N)CCC4)cc3)c(=O)c2cc1OC", "≤ 1000 nM"),
    ("NC1(c2ccc(-c3c(-c4ccccc4)oc4c(ccc5nc(C(F)F)[nH]c54)c3=O)cc2)CCC1", "≤ 1000 nM"),
    ("Nc1cc2oc(-c3ccccc3)c(-c3ccc(C4(N)CCC4)cc3)c(=O)c2cc1Br [Example 49, TFA]", "> 10000 nM"),
    ("CC(C)Cn1cc(-c2nccc3c(=O)c(-c4ccc(C5(N)CCC5)cc4)c(-c4ccccc4)oc23)cn1", "≤ 1000 nM"),
    ("NC1(c2ccc(-c3c(-c4ccccc4)oc4[nH]c(=O)ccc4c3=O)cc2)CCC1 [Example 36, hydrochloride]", "1000 to 10000 nM"),
    ("Cn1cnc2ccc3c(=O)c(-c4ccc(C5(N)CCC5)cc4)c(-c4ccccc4)oc3c21", "≤ 1000 nM"),
    ("N#Cc1cccc(-c2nccc3c(=O)c(-c4ccc(C5(N)CCC5)cc4)c(-c4ccccc4)oc23)c1", "≤ 1000 nM"),
    ("NC1(c2ccc(-c3c(-c4ccccc4)oc4ccc(F)cc4c3=O)cc2)CCC1", "1000 to 10000 nM"),
    ("NC1(c2ccc(-c3c(-c4ccccc4)oc4ccc(-n5ccnc5)cc4c3=O)cc2)CCC1", "1000 to 10000 nM"),
]
